Target: mouse Tas2r144 (Mus musculus, UniProt Q7TQB8)
Construct: expressed in transfected cells; host or cells: HEK293T-Gα16gust44
Sequence (Q7TQB8 whole entry): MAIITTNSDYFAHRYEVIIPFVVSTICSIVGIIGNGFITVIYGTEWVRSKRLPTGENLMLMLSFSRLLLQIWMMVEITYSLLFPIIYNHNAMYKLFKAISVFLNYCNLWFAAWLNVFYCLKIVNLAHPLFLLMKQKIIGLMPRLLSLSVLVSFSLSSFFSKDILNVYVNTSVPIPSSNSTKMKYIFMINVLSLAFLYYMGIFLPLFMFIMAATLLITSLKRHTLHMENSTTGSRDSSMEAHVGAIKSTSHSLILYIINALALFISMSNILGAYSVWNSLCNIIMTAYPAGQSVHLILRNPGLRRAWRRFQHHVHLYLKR
Experiment: Calcium imaging assay (FLIPR), HEK293T-Gα16gust44 cells transfected with mouse Tas2r144
Assay type: cell-based
Settings: Time 18.781 s
parameterMeasured: RLU (RLU)
Quick reminder: number only, in RLU, skip the unit.

>>> valuereported("C[C@H](CCC(=O)NCC(=O)O)[C@H]1CC[C@H]2[C@@H]3[C@H](O)C[C@@H]4C[C@H](O)CC[C@]4(C)[C@H]3C[C@H](O)[C@]12C [Glycocholic Acid, glycocholic acid]")
-3.913
>>> valuereported("C[C@H](CCC(=O)NCCS(=O)(=O)O)[C@H]1CC[C@H]2[C@@H]3[C@H](O)C[C@@H]4C[C@H](O)CC[C@]4(C)[C@H]3C[C@H](O)[C@]12C [Taurocholic Acid, taurocholic acid]")
35.5911

# RLU measured on mouse Tas2r144 (Mus musculus, UniProt Q7TQB8) for item C[C@H](CCC(=O)NCCS(=O)(=O)O)[C@H]1CC[C@H]2[C@@H]3CC[C@@H]4C[C@H](O)CC[C@]4(C)[C@H]3CC[C@]12C [Taurolithocholic Acid, taurolithocholic acid] = 60.5615

Summary: C[C@H](CCC(=O)O)[C@H]1CC[C@H]2[C@@H]3[C@H](O)C[C@@H]4C[C@H](O)CC[C@]4(C)[C@H]3C[C@H](O)[C@]12C [Cholic Acid, cholic acid] , mouse Tas2r144 (Mus musculus, UniProt Q7TQB8), RLU = 46.048
